For each record, write down the corresponding phosphorylation enrichment.
molecular target: FGFR1 (UniProt P11362); experiment: phosphorylation enrichment, bacterial display (enrichment ratio); higher = better substrate or ligand; peptides without Tyr show the background;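 also: 11-residue human phosphosite peptides and single-mutation variants displayed on the E. coli surface, counted by deep sequencing, each peptide's frequency after selection divided by its frequency in the unselected input library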;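 also: frequency after pTyr selection over input frequency; kinase dosed for 20-30% of maximal phosphorylation in three min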
Sequence (P11362 whole entry, looked up): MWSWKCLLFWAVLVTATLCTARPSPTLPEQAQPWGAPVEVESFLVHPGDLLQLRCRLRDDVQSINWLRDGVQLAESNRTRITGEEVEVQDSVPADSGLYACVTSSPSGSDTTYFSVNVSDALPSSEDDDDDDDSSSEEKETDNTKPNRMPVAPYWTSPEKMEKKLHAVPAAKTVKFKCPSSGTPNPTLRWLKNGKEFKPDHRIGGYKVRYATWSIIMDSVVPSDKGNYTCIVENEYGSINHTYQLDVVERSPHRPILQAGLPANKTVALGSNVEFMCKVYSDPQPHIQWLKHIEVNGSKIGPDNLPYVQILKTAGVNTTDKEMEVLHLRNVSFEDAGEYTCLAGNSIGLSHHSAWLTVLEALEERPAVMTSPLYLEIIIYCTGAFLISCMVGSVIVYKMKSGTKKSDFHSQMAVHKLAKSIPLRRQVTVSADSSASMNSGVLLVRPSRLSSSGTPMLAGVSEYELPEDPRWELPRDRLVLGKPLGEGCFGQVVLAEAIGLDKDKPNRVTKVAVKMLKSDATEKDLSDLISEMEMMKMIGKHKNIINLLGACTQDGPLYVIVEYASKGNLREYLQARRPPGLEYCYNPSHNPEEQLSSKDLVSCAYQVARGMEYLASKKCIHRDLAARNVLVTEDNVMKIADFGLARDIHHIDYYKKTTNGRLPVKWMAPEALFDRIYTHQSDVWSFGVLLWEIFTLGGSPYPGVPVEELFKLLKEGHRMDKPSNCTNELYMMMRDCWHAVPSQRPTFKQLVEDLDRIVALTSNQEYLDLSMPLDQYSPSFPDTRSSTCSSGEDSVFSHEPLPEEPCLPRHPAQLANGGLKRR
The answer should be a number; do not append a unit.

# input Recorded phosphorylation enrichment for GVLDIYGFEIL [MYO1A_Y382] , please?
# output 0.579

# input Recorded phosphorylation enrichment for PDGHEYIYVDP [PDGFRA_Y572] , please?
# output 11.7

# input Recorded phosphorylation enrichment for TFAVSYLPDMS [FLNC_Y1602_T1599A_YF] , please?
# output 0.5

# input Recorded phosphorylation enrichment for PTTMTYFPHFD [HBA1_Y43_K41M] , please?
# output 2.97

# input Recorded phosphorylation enrichment for SVTSTYSPALN [TP53_Y126_C124S] , please?
# output 0.511

# input Recorded phosphorylation enrichment for TCFDKYTGSTF [FN1_Y101_N104S_YF] , please?
# output 0.443

# input Recorded phosphorylation enrichment for AKRKGYDMRVD [NEB_Y2770] , please?
# output 0.292

# input Recorded phosphorylation enrichment for GLVFLYMEKNQ [PRELP_Y156] , please?
# output 0.339

# input Recorded phosphorylation enrichment for KSEMSYIDGEK [SORBS1_Y485] , please?
# output 0.659

# input Recorded phosphorylation enrichment for ISIFYYAKGQP [MPZ_Y82_H81Y] , please?
# output 0.563

# input Recorded phosphorylation enrichment for SLVVPYEPPEV [TP53_Y220_V216L] , please?
# output 0.672

# input Recorded phosphorylation enrichment for GGMTEYNLVVV [KRAS_Y4_K5N] , please?
# output 1.08

# input Recorded phosphorylation enrichment for EKPAKYDDIKK [GAPDH_Y255] , please?
# output 0.391

# input Recorded phosphorylation enrichment for QSSEGYGLGDR [KIAA1210_Y564] , please?
# output 0.538

# input Recorded phosphorylation enrichment for CTTIHYNYMCH [TP53_Y234_N239H] , please?
# output 0.514

# input Recorded phosphorylation enrichment for QGRQTYLLQPA [DDR2_Y813_P815L] , please?
# output 0.63

----------
For each record, write down the corresponding phosphorylation enrichment.
target: Hck (UniProt P08631); assay: phosphorylation enrichment, bacterial display (enrichment ratio); higher = better substrate or ligand; peptides without Tyr show the background
Sequence (P08631 whole entry, looked up): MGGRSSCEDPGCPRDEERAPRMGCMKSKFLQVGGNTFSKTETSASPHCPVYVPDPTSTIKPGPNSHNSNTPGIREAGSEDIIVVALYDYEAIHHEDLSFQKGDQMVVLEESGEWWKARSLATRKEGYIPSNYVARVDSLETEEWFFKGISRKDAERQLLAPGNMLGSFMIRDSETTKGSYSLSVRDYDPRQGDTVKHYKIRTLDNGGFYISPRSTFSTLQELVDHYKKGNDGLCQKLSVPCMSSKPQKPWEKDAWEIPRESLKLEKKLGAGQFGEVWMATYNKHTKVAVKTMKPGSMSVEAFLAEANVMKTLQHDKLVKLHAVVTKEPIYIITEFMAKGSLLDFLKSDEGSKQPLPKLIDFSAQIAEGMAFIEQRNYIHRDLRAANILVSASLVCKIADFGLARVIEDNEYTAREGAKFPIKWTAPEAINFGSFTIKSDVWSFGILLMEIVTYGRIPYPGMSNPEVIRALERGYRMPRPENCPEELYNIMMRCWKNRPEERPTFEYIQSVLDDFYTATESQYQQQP
The answer should be a number; do not append a unit.

# input Recorded phosphorylation enrichment for SDYSSYARTSI [TERT_Y949] , please?
# output 0.862

# input Recorded phosphorylation enrichment for DLLNSYTENEG [HSPA4L_Y600_I601T] , please?
# output 0.603

# input Recorded phosphorylation enrichment for DIMDLYNQPEP [IL36A_Y96] , please?
# output 0.817

# input Recorded phosphorylation enrichment for SLFNGYVYSGM [NEIL3_Y71_V76M] , please?
# output 2.72

# input Recorded phosphorylation enrichment for TLARLYHPDST [LRIG1_Y1029] , please?
# output 0.416

----------
target: Jak2 (UniProt O60674); assay: phosphorylation enrichment, bacterial display (enrichment ratio); higher = better substrate or ligand; peptides without Tyr show the background
Sequence (O60674 whole entry, looked up): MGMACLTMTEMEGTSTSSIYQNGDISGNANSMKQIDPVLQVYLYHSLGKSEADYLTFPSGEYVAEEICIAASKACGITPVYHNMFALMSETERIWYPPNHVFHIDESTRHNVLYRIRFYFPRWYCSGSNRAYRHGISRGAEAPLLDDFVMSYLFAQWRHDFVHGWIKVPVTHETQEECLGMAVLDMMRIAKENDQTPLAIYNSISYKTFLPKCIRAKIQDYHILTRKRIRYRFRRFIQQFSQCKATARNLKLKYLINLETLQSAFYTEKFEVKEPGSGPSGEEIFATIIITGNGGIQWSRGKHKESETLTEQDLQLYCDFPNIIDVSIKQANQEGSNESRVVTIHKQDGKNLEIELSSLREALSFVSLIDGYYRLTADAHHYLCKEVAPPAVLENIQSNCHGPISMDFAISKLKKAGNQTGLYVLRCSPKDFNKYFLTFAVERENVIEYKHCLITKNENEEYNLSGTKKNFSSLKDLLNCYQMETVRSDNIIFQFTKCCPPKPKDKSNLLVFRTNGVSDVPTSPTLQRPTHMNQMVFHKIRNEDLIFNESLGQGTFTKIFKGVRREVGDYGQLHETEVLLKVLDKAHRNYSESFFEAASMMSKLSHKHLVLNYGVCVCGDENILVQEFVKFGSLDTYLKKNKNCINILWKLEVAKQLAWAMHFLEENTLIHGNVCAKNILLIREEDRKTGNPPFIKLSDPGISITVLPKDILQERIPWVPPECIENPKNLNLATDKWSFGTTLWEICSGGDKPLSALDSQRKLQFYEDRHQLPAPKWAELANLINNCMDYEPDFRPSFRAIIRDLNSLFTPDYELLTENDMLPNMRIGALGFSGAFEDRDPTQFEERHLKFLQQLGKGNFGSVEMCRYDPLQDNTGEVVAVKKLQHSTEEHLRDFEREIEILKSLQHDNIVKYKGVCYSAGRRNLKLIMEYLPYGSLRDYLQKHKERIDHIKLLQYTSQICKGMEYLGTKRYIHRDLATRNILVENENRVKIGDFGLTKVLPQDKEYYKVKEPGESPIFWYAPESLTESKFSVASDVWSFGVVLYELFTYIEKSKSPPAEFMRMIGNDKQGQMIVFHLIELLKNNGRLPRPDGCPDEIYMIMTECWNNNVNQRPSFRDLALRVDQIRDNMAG
For each record, write down the corresponding phosphorylation enrichment.
The answer should be a number; do not append a unit.

# input Recorded phosphorylation enrichment for AKQVGCENAGT [PC_Y304_Y304C] , please?
# output 0.706

# input Recorded phosphorylation enrichment for PSAELYSFALP [PDGFRB_Y716_N718Y_YF] , please?
# output 1.03

# input Recorded phosphorylation enrichment for QCTSAYPLQPE [NANS_Y188] , please?
# output 1.65

Where do the numbers come from? From the supplement of paper PMC10065799.
